- System: Streptococcus equinus
- measurement.description: Tested in vitro for minimum inhibitory concentration to produce antibacterial activity against Streptococcus bovis A-5169 in presence of erythromycin A
- Type: functional
observable: MIC (µg/mL)

entry.smiles: CCO/N=C1\[C@H](C)C[C@@](C)(OC)[C@H](O[C@@H]2O[C@H](C)C[C@H](N(C)C)[C@H]2O)[C@@H](C)C[C@@H](C)C(=O)O[C@H](CC)[C@@](C)(O)[C@H](O)[C@H]1C
experimental.value: 0.01

entry.smiles: CC[C@H]1OC(=O)[C@H](C)[C@@H](OC(=S)SC)[C@H](C)[C@@H](O[C@@H]2O[C@H](C)C[C@H](N(C)C)[C@H]2O)[C@](C)(OC)C[C@@H](C)C(=O)[C@H](C)[C@@H](O)[C@]1(C)O
experimental.value: 0.02

entry.smiles: CC[C@H]1OC(=O)[C@H](C)C[C@H](C)[C@@H](O[C@@H]2O[C@H](C)C[C@H](N(C)C)[C@H]2O)[C@](C)(OC)C[C@@H](C)C(=O)/C(C)=C/[C@]1(C)O
experimental.value: 0.2

entry.smiles: CC[C@H]1OC(=O)[C@H](C)C[C@H](C)[C@@H](O[C@@H]2O[C@H](C)C[C@H](N(C)C)[C@H]2O)[C@](C)(OC)C[C@@H](C)C(=O)[C@H](C)[C@H]2OC(=O)O[C@@]21C
experimental.value: 0.05

entry.smiles: CC[C@H]1OC(=O)[C@H](C)[C@@H](O[C@H]2C[C@@](C)(OC)[C@@H](O)[C@H](C)O2)[C@H](C)[C@@H](O[C@@H]2O[C@H](C)C[C@H](N(C)C)[C@H]2O)[C@](C)(OC)C[C@@H](C)C(=O)[C@H](C)[C@@H](O)[C@]1(C)O
experimental.value: 0.01

entry.smiles: CC[C@H]1OC(=O)[C@H](C)C[C@H](C)[C@@H](O[C@@H]2O[C@H](C)C[C@H](N(C)C)[C@H]2O)[C@](C)(OC)C[C@@H](C)C(=O)[C@H](C)[C@H]2N(CCc3ccc(Oc4ccccc4)cc3)C(=O)O[C@]12C
experimental.value: 0.05

entry.smiles: CC[C@H]1OC(=O)[C@H](C)C(=O)[C@H](C)[C@@H](O[C@@H]2O[C@H](C)C[C@H](N(C)C)[C@H]2O)[C@](C)(OC)C[C@@H](C)C(=O)[C@H](C)[C@@H](O)[C@]1(C)O
experimental.value: 0.02

entry.smiles: CC[C@H]1OC(=O)[C@H](C)C[C@H](C)[C@@H](O[C@@H]2O[C@H](C)C[C@H](N(C)C)[C@H]2O)[C@](C)(OC)C[C@@H](C)/C(=N\OC)[C@H](C)[C@@H](O)[C@]1(C)O
experimental.value: 0.01

entry.smiles: CC[C@H]1OC(=O)[C@H](C)C[C@H](C)[C@@H](O[C@@H]2O[C@H](C)C[C@H](N(C)C)[C@H]2O)[C@](C)(OC)C[C@@H](C)C(=O)[C@H](C)[C@H]2N(CCCCc3ccccc3)C(=O)O[C@]12C
experimental.value: 0.02

entry.smiles: CC[C@H]1OC(=O)[C@H](C)C[C@H](C)[C@@H](O[C@@H]2O[C@H](C)C[C@H](N(C)C)[C@H]2O)[C@](C)(OC)C[C@@H](C)C(=O)[C@H](C)[C@@H](O)[C@]1(C)O
experimental.value: 0.02

entry.smiles: CC[C@H]1OC(=O)[C@H](C)C[C@H](C)[C@@H](O[C@@H]2O[C@H](C)C[C@H](N(C)C)[C@H]2O)[C@](C)(OC)C[C@@H](C)C2=NCCN3C(=O)O[C@@]1(C)[C@H]3[C@H]2C
experimental.value: 0.05

entry.smiles: CC[C@H]1OC(=O)[C@H](C)C[C@H](C)[C@@H](O[C@@H]2O[C@H](C)C[C@H](N(C)C)[C@H]2O)[C@](C)(OC)C[C@@H](C)/C(=N\O)[C@H](C)[C@@H](O)[C@]1(C)O
experimental.value: 0.05

---

- System: Staphylococcus aureus
- measurement.description: Tested in vitro for minimum inhibitory concentration to produce antibacterial activity against Staphylococcus aureus A-5278
- Assay type: functional
observable: MIC

entry.smiles: CC[C@H]1OC(=O)[C@H](C)C[C@H](C)[C@@H](O[C@@H]2O[C@H](C)C[C@H](N(C)C)[C@H]2O)[C@](C)(OC)C[C@@H](C)C(=O)[C@H](C)[C@H]2OC(=O)O[C@@]21C
observable: MIC
experimental.value: > 100 mg/L

entry.smiles: CC[C@H]1OC(=O)[C@H](C)C[C@H](C)[C@@H](O[C@@H]2O[C@H](C)C[C@H](N(C)C)[C@H]2O)[C@](C)(OC)C[C@@H](C)C(=O)[C@H](C)[C@@H](O)[C@]1(C)O
observable: MIC
experimental.value: > 100 mg/L

entry.smiles: CC[C@H]1OC(=O)[C@H](C)C[C@H](C)[C@@H](O[C@@H]2O[C@H](C)C[C@H](N(C)C)[C@H]2O)[C@](C)(OC)C[C@@H](C)C2=NCCN3C(=O)O[C@@]1(C)[C@H]3[C@H]2C
observable: MIC
experimental.value: > 100 mg/L

entry.smiles: CC[C@H]1OC(=O)[C@H](C)C[C@H](C)[C@@H](O[C@@H]2O[C@H](C)C[C@H](N(C)C)[C@H]2O)[C@](C)(OC)C[C@@H](C)/C(=N\O)[C@H](C)[C@@H](O)[C@]1(C)O
observable: MIC
experimental.value: > 100 mg/L

entry.smiles: CC[C@H]1OC(=O)[C@H](C)C[C@H](C)[C@@H](O[C@@H]2O[C@H](C)C[C@H](N(C)C)[C@H]2O)[C@](C)(OC)C[C@@H](C)/C(=N\OC)[C@H](C)[C@@H](O)[C@]1(C)O
observable: MIC
experimental.value: > 100 mg/L

---

- Tested on: Escherichia coli
- measurement.description: Tested in vitro for minimum inhibitory concentration to produce antibacterial activity against Escherichia coli SS
- Assay type: functional
Entries and their MIC

entry.smiles: CC[C@H]1OC(=O)[C@H](C)C[C@H](C)[C@@H](O[C@@H]2O[C@H](C)C[C@H](N(C)C)[C@H]2O)[C@](C)(OC)C[C@@H](C)C(=O)[C@H](C)[C@@H](O)[C@]1(C)O
MIC: 0.78 µg/mL
--
entry.smiles: CCO/N=C1\[C@H](C)C[C@@](C)(OC)[C@H](O[C@@H]2O[C@H](C)C[C@H](N(C)C)[C@H]2O)[C@@H](C)C[C@@H](C)C(=O)O[C@H](CC)[C@@](C)(O)[C@H](O)[C@H]1C
MIC: 3.1 µg/mL
--
entry.smiles: CC[C@H]1OC(=O)[C@H](C)C(=O)[C@H](C)[C@@H](O[C@@H]2O[C@H](C)C[C@H](N(C)C)[C@H]2O)[C@](C)(OC)C[C@@H](C)C(=O)[C@H](C)[C@@H](O)[C@]1(C)O
MIC: 0.39 µg/mL
--
entry.smiles: CC[C@H]1OC(=O)[C@H](C)C[C@H](C)[C@@H](O[C@@H]2O[C@H](C)C[C@H](N(C)C)[C@H]2O)[C@](C)(OC)C[C@@H](C)C(=O)[C@H](C)[C@H]2N(CCCCc3ccccc3)C(=O)O[C@]12C
MIC: 1.56 µg/mL

---

- Tested on: Staphylococcus aureus
- measurement.description: Tested in vitro for minimum inhibitory concentration to produce antibacterial activity against Staphylococcus aureus A-5278
- Format: functional

entry.smiles: CC[C@H]1OC(=O)[C@H](C)[C@@H](OC(=S)SC)[C@H](C)[C@@H](O[C@@H]2O[C@H](C)C[C@H](N(C)C)[C@H]2O)[C@](C)(OC)C[C@@H](C)C(=O)[C@H](C)[C@@H](O)[C@]1(C)O
experimental.target: Staphylococcus aureus
MIC: > 100 µg/mL

entry.smiles: CC[C@H]1OC(=O)[C@H](C)C(=O)[C@H](C)[C@@H](O[C@@H]2O[C@H](C)C[C@H](N(C)C)[C@H]2O)[C@](C)(OC)C[C@@H](C)C(=O)[C@H](C)[C@@H](O)[C@]1(C)O
experimental.target: Staphylococcus aureus
MIC: > 100 µg/mL

entry.smiles: CC[C@H]1OC(=O)[C@H](C)C[C@H](C)[C@@H](O[C@@H]2O[C@H](C)C[C@H](N(C)C)[C@H]2O)[C@](C)(OC)C[C@@H](C)C(=O)/C(C)=C/[C@]1(C)O
experimental.target: Staphylococcus aureus
MIC: > 100 µg/mL

entry.smiles: CC[C@H]1OC(=O)[C@H](C)C[C@H](C)[C@@H](O[C@@H]2O[C@H](C)C[C@H](N(C)C)[C@H]2O)[C@](C)(OC)C[C@@H](C)C(=O)[C@H](C)[C@H]2N(CCc3ccc(Oc4ccccc4)cc3)C(=O)O[C@]12C
experimental.target: Staphylococcus aureus
MIC: 25 µg/mL
